Tested on: HCT-116 colon
Procedure Summary: NCI-60 one-dose screen, 48 h (100 = growth as untreated, 0 = no growth, -100 = all killed)
Condition Set: 10 µM unless noted
This is part of a sample that, as a whole, favours compounds with a hit. Of some 83,000 tested, about 20% had one in any assay.
Exercise: for every item that follows, state its recorded growth.
Output spec: scalar in %, unitless text.

Recorded result, CCCCCCCCc1ccc(S(=O)(=O)Nc2ccc(CC)cc2C(=O)O)cc1 , growth: 87.7

Recorded result, COc1cc(C2CC(c3cc(OC)c(OC)c(OC)c3)=NN2c2ccccc2)ccc1OCc1ccc(C)cc1 (stereo not drawn) , growth: 80.6

Recorded result, Cc1c(C(=O)NNC(=O)c2ccc(Cl)cc2)nnn1-c1ccc(Cl)cc1 , growth: 85.3

Recorded result, Clc1ccc(-c2ccc(OCCCN3CCN(c4ccncc4)CC3)cc2)cc1 , growth: -28.8

Recorded result, COc1cc(/C=C/C(=O)c2nnn(-c3ccc(Cl)cc3)c2C)cc(OC)c1OC , growth: 26.2

Recorded result, CN1CCN(c2ccc3c(c2)nc(NNC(=O)c2ncccn2)c2cccn23)CC1 , growth: 0.844

Recorded result, CC(=O)Nc1cccc(-c2nc3cc(-c4ccc(O)cc4)ccc3n2C)c1 , growth: 45.7

Recorded result, Cc1ccccc1[C@H]1C(C(=O)c2ccc(Cl)cc2)C2(N[C@@H]1c1ccccc1)C(=O)Nc1ccc(Br)cc12 (stereo partly drawn) , growth: -71.6

Recorded result, Cc1cc(C)cc(C(=O)Nc2cccc(-c3cn(-c4ccc(S(N)(=O)=O)cc4)nn3)c2)c1 , growth: 39.8

Recorded result, COc1ccc(NC(=O)c2sc3nc(C(C)C)ccc3c2N)cc1 , growth: 94.7

Recorded result, CCOc1ccc(-c2c(C#N)c(-c3ccc(Cl)cc3)nc3n[nH]c(-c4ccc(Cl)cc4)c23)cc1OC , growth: 31.4

Recorded result, O=C(COc1ccc(NC(=O)Nc2ccc(Cl)c(Cl)c2)cc1)N=Nc1c(O)[nH]c2ccc(Cl)cc12 , growth: -53.5

Recorded result, CCCSc1nc(Nc2ccc(S(N)(=O)=O)cc2)c(C#N)c(-c2ccc(Cl)cc2)n1 , growth: -67.1

###

Exercise: for every item that follows, state its recorded growth.
System: HOP-62 NSCLC
Procedure Summary: NCI-60 one-dose screen, 48 h (100 = growth as untreated, 0 = no growth, -100 = all killed)
Condition Set: 10 µM unless noted
About 83,000 compounds went through this panel and 20% of them were active in at least one assay; those are over-represented in the sample as a whole.
Output spec: scalar in %, unitless text.

Recorded result, Cc1ccccc1[C@H]1C(C(=O)c2ccc(Cl)cc2)C2(N[C@@H]1c1ccccc1)C(=O)Nc1ccccc12 (some centres undefined) , growth: -48.2

Recorded result, CN(C)c1nc(NCCNS(=O)(=O)c2ccc(C3=Nc4c(N)nc(N)nc4NC(c4ccc(Cl)cc4)C3)cc2)nc(Nc2ccc(F)cc2)n1 (centres undefined) , growth: 80.3

Recorded result, COc1ccc2nc(Nc3cccc(NC(=O)c4ccc(CN5CCCN(C)CC5)c(C(F)(F)F)c4)c3)ccc2c1 , growth: -47.3

Recorded result, COc1ccc(NC(=O)Cn2c3c(sc2=O)[C@H]2[C@@H](O)[C@@H](O)[C@H](O)[C@@H]2CS3)cc1 , growth: 99.5

Recorded result, COc1cc(-c2cc(-c3cccc(OCC(=O)O)c3)[nH]c(=O)c2C#N)cc(OC)c1OC , growth: 99.1

Recorded result, CC(=O)Nc1ccc(-c2nc3cc(-c4ccc(O)cc4)ccc3n2C)cc1 , growth: 83.8

Recorded result, COc1cc(/C=C2\C(=N)N=C(SCc3nc4ccccc4[nH]3)NC2=O)ccc1O , growth: 101

Recorded result, O=C(COc1ccc(NC(=O)Nc2ccccc2)cc1)N=Nc1c(O)[nH]c2ccc([N+](=O)[O-])cc12 , growth: 24.5

Recorded result, C=C1CC[C@@H]2[C@]3(C)COC(c4ccco4)O[C@@H]3CC[C@@]2(C)[C@@H]1C/C=C1/C(=O)OCC1OC(C)=O (some centres undefined) , growth: 66.5

Recorded result, CN(C)CCn1c2ccccc2c2nc3ccc([N+](=O)[O-])cc3nc21 , growth: -19.3

Recorded result, Cc1cc(C)cc(C(=O)Nc2cccc(-c3cn(-c4ccc(S(N)(=O)=O)cc4)nn3)c2)c1 , growth: -18.3

Recorded result, O=C(/C=C/Nc1ccc(Cl)cc1)c1ccc2c(c1)Nc1ccccc1S2 , growth: -27.5

Recorded result, COC(=O)/C=C/c1cccc2c1C(=O)NC(C)(c1cc3cc4ccccc4cc3oc1=O)N2 (centres undefined) , growth: 33.7

Recorded result, O=c1[nH]c2ccccc2cc1CSc1nccc(-c2ccc3ccccc3c2)n1 , growth: 71.5

Recorded result, Cc1ccc2c(N)c(C(=O)Nc3ccc(OC(F)(F)F)cc3)sc2n1 , growth: 68.4

Recorded result, CC(=O)N1CCN(Cc2ccc3c(NNC(=O)c4cnccn4)nc4cc(F)ccc4n23)CC1 , growth: 15.4

Recorded result, O=C(Cn1c2c(sc1=O)[C@H]1[C@@H](O)[C@@H](O)[C@H](O)[C@@H]1CS2)N1CCOCC1 , growth: 92.7

Recorded result, CCOc1ccc(-c2c(C#N)c(-c3ccc(Cl)cc3)nc3n[nH]c(-c4ccc(Cl)cc4)c23)cc1OC , growth: 68.7

Recorded result, Cn1cc(-c2cc(N)n3nc(-c4c[nH]c5ccccc45)cc3n2)c2cccnc21 , growth: 62.6

Recorded result, Cc1ccc(-c2nnc3ccc(N/N=C/c4ccccc4)nn23)cc1 , growth: 88.5

Recorded result, COc1ccc2[nH]c(O)c(N=NC(=O)COc3ccc(NC(=O)Nc4ccccc4)cc3)c2c1 , growth: -6

Recorded result, COc1cc(/C=C/C(=O)c2ccc(C)cc2)ccc1Oc1nc(Nc2ccc(F)cc2)nc(N(C)C)n1 , growth: 86.4

Recorded result, COc1ccc(NC(=O)[C@@H](N)Cc2ccccc2)cc1C(=O)Nc1cccc(C2CC(=O)c3c(cc(OC)c(OC)c3OC)O2)c1 (some centres undefined) , growth: 86.8

Recorded result, N#Cc1c(-c2ccc(Br)cc2)nc2n[nH]c(-c3ccc(Br)cc3)c2c1-c1ccc(F)cc1 , growth: 87.9

Recorded result, Cc1ccc([C@H]2C(C(=O)c3ccc(Cl)cc3)C3(N[C@@H]2c2ccccc2)C(=O)Nc2ccc(Br)cc23)cc1 (some centres undefined) , growth: 69.9

Recorded result, O=C1CCCc2cc(OCC(=O)N3CCCCC3)ccc2N1 , growth: 105

Recorded result, COc1ccc(/C=C/c2nc3ccccc3c(=O)n2CC(=O)Nc2ccc(Cl)cc2)cc1 , growth: 8.06

Recorded result, Cc1cccc(-c2nc(Nc3cccc(S(N)(=O)=O)c3)c3ccccc3n2)c1 , growth: 80.2

Recorded result, COc1ccc(/C=C/c2nc3ccccc3n3c(-c4ccc(Cl)cc4)nnc23)cc1 , growth: 96.8

Source listed as PubChem BioAssay (NCI).
